kon for assorted binders
# targetOfAssay: T1, hIL2-DM-his (human, UniProt P60568 21-153)
# T1 construct: expressed in ExpiCHO-S cells, nickel-column purified; also called hIL-2 mutein containing two point mutations K64G and N90R (with a his-tag); not shown: his-tag
# T1 sequence (P60568 21-153 K84G/N110R): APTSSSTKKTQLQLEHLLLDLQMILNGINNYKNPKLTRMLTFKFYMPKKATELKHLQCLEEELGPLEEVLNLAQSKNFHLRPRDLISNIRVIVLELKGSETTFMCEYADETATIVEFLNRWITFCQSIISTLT
# testMethodNotes: BLI ForteBio, Ab on Protein A sensor
Number in M⁻¹ s⁻¹, nothing else.

query: Need kon, item hS4B6-H6K3 (antibody, V domains shown, full antibody) VH: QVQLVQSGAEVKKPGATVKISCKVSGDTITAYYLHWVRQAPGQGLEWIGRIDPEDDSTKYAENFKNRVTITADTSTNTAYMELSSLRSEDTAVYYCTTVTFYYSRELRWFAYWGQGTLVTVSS VL: DIVLTQSPATLSLSPGERATLSCQASQDIGNYLSWYQQKPGQAPRLLIYSATSLADGIPARFSGSRSGTDYTLTISSLEPEDFAVYYCLQHYSTPYTFGQGTKLEIK
result: 413000

query: Another binder: hS4B6-H6K3-hu04 (antibody, V domains shown, H6K3 with heavy chain L34M) VH: QVQLVQSGAEVKKPGATVKISCKVSGDTITAYYMHWVRQAPGQGLEWIGRIDPEDDSTKYAENFKNRVTITADTSTNTAYMELSSLRSEDTAVYYCTTVTFYYSRELRWFAYWGQGTLVTVSS VL: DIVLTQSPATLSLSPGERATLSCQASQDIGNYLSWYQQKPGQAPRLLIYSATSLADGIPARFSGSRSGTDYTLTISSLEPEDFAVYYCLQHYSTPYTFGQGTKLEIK
result: 430000

query: Another binder: hS4B6-H6K3-hu07 (antibody, V domains shown, H6K3 with heavy chain N65G) VH: QVQLVQSGAEVKKPGATVKISCKVSGDTITAYYLHWVRQAPGQGLEWIGRIDPEDDSTKYAENFKGRVTITADTSTNTAYMELSSLRSEDTAVYYCTTVTFYYSRELRWFAYWGQGTLVTVSS VL: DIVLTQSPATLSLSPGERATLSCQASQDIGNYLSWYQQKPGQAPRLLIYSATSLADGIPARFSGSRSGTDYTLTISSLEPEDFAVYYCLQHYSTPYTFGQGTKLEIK
result: 400000

query: Another binder: hS4B6-H6K3-hu08 (antibody, V domains shown, H6K3 with heavy chain N76D; also called H6K3-huis) VH: QVQLVQSGAEVKKPGATVKISCKVSGDTITAYYLHWVRQAPGQGLEWIGRIDPEDDSTKYAENFKNRVTITADTSTDTAYMELSSLRSEDTAVYYCTTVTFYYSRELRWFAYWGQGTLVTVSS VL: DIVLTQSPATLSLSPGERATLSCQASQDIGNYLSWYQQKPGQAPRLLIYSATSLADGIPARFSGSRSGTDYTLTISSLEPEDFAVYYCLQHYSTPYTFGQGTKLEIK
result: 356000

query: Another binder: hS4B6-H6K3-hu10 (antibody, V domains shown, H6K3 with light chain D56T) VH: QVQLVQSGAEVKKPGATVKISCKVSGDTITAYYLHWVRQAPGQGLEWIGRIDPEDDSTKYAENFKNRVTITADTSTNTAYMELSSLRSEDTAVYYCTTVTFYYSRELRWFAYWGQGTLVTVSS VL: DIVLTQSPATLSLSPGERATLSCQASQDIGNYLSWYQQKPGQAPRLLIYSATSLATGIPARFSGSRSGTDYTLTISSLEPEDFAVYYCLQHYSTPYTFGQGTKLEIK
result: 372000

query: Another binder: hS4B6-H6K3-hu06 (antibody, V domains shown, H6K3 with heavy chain N65S) VH: QVQLVQSGAEVKKPGATVKISCKVSGDTITAYYLHWVRQAPGQGLEWIGRIDPEDDSTKYAENFKSRVTITADTSTNTAYMELSSLRSEDTAVYYCTTVTFYYSRELRWFAYWGQGTLVTVSS VL: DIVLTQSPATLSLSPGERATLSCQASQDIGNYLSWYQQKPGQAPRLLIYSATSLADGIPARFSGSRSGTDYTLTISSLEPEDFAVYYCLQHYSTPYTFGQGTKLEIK
result: 365000

query: Another binder: hS4B6-H6K3-hu12 (antibody, V domains shown, H6K3 with light chain Y71F) VH: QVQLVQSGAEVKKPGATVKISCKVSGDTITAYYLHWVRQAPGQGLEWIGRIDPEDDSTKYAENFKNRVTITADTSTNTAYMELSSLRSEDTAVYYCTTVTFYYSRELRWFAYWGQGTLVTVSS VL: DIVLTQSPATLSLSPGERATLSCQASQDIGNYLSWYQQKPGQAPRLLIYSATSLADGIPARFSGSRSGTDFTLTISSLEPEDFAVYYCLQHYSTPYTFGQGTKLEIK
result: 537000

query: Another binder: hS4B6-H6K3-hu05 (antibody, V domains shown, H6K3 with heavy chain I48M) VH: QVQLVQSGAEVKKPGATVKISCKVSGDTITAYYLHWVRQAPGQGLEWMGRIDPEDDSTKYAENFKNRVTITADTSTNTAYMELSSLRSEDTAVYYCTTVTFYYSRELRWFAYWGQGTLVTVSS VL: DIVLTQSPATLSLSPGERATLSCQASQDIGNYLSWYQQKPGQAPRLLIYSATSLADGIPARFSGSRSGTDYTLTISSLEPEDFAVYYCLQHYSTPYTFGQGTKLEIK
result: 387000

query: Another binder: hS4B6-H6K3-hu09 (antibody, V domains shown, H6K3 with light chain D56S) VH: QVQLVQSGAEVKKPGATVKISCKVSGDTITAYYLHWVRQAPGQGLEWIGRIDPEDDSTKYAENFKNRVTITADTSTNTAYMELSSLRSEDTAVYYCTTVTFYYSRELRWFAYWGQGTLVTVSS VL: DIVLTQSPATLSLSPGERATLSCQASQDIGNYLSWYQQKPGQAPRLLIYSATSLASGIPARFSGSRSGTDYTLTISSLEPEDFAVYYCLQHYSTPYTFGQGTKLEIK
result: 367000

Hey, just so you know, these numbers are from patent US20250346644A1.
